Let's look at some sequences and their measured protein stability index.
System: Saccharomyces cerevisiae
ASSAY NAME: protein stability index of tFT-peptide fusion (C-terminal peptide) (PSI (0-1 scale)); higher = more stable (slower turnover)
TEST CONDITIONS: genetic background: wild type; temperature: 30 C
OBSERVATION TYPE: protein stability index

1) LSLPTLPLPPPS: 0.717
2) PPLLDLATYSSS: 0.697
3) PPPHPPRRLLPP: 0.69
4) YLVGVRDSFALR: 0.715
5) YLALSAPKERTH: 0.703

----------
System: Saccharomyces cerevisiae
ASSAY NAME: protein stability index of tFT-peptide fusion (C-terminal peptide) (PSI (0-1 scale)); higher = more stable (slower turnover)
TEST CONDITIONS: genetic background: wild type; temperature: 30 C
OBSERVATION TYPE: protein stability index

1) GGVEVAQGVVWC: 0.715
2) PAPLLPPSWRHP: 0.716
3) GFIRVRHLRSLC: 0.234
4) FWEGETVPTSEP: 0.788

----------
Tested on: Saccharomyces cerevisiae
ASSAY NAME: protein stability index of tFT-peptide fusion (C-terminal peptide) (PSI (0-1 scale)); higher = more stable (slower turnover)
TEST CONDITIONS: genetic background: wild type; temperature: 30 C
OBSERVATION TYPE: protein stability index

1) GKNAEENNIVRE: 0.614
2) PSPYSLSPYFLV: 0.425
3) VRWGLLLSCLRS: 0.666
4) CPALSPSPTLAS: 0.68
5) LRVGVRSWGGKW: 0.433

----------
Test system: Saccharomyces cerevisiae
ASSAY NAME: protein stability index of tFT-peptide fusion (C-terminal peptide) (PSI (0-1 scale)); higher = more stable (slower turnover)
TEST CONDITIONS: genetic background: das1 deletion; temperature: 30 C
Let's look at some sequences and their measured protein stability index.
OBSERVATION TYPE: protein stability index

1) VIWVLGALASWG: 0.479
2) PPTHDSPVWSPS: 0.672
3) LFPLLCLLLPSL: 0.548
4) RGVRALFLLLSF: 0.392
5) VFVFLFVFLFLL: 0.214

----------
Tested on: Saccharomyces cerevisiae
ASSAY NAME: protein stability index of tFT-peptide fusion (C-terminal peptide) (PSI (0-1 scale)); higher = more stable (slower turnover)
TEST CONDITIONS: genetic background: das1 deletion; temperature: 30 C
Let's look at some sequences and their measured protein stability index.
OBSERVATION TYPE: protein stability index

1. GVVCCGFFFLVV: 0.401
2. FFLDVMFLLFFF: 0.399
3. CPFLTLLISLDV: 0.411

----------
Test system: Saccharomyces cerevisiae
ASSAY NAME: protein stability index of tFT-peptide fusion (C-terminal peptide) (PSI (0-1 scale)); higher = more stable (slower turnover)
TEST CONDITIONS: genetic background: das1 deletion; temperature: 30 C
Let's look at some sequences and their measured protein stability index.
OBSERVATION TYPE: protein stability index

1. EIASCSSSIYSE [DSE3 C-terminal 12 aa]: 0.696
2. NGTAKSAQSTTV [YAR019W-A C-terminal 12 aa]: 0.675
3. KAELDRYKRENQ [SEM1 C-terminal 12 aa]: 0.705
4. EPTKKGFLVCRM [YMR320W C-terminal 12 aa]: 0.771
5. LMFSKLGRYLFN [NSG1 C-terminal 12 aa]: 0.686
6. ARLDKSLTFEDQ [RIM20 C-terminal 12 aa]: 0.698

----------
System: Saccharomyces cerevisiae
ASSAY NAME: protein stability index of tFT-peptide fusion (C-terminal peptide) (PSI (0-1 scale)); higher = more stable (slower turnover)
TEST CONDITIONS: genetic background: wild type; temperature: 30 C
OBSERVATION TYPE: protein stability index

1. SNFQLLPLFKNI: 0.39
2. PSPRLSLPPRLP: 0.737
3. GVRCCGLCGVGV: 0.615
4. RSPLPHPPPHSY: 0.612
5. GGALDQADGGRS: 0.727
6. GSQHSPRPFFFQ: 0.72
7. PSRPLPPPPPPL: 0.765
8. PMYKYKTSQKDL: 0.657
9. GWCGGAIIRAWD: 0.678
10. TLPSHPRLLSLH: 0.697
11. REKARNEKRRKT: 0.651
12. KKKGSKITKIKD: 0.699

----------
Let's look at some sequences and their measured protein stability index.
System: Saccharomyces cerevisiae
ASSAY NAME: protein stability index of tFT-peptide fusion (C-terminal peptide) (PSI (0-1 scale)); higher = more stable (slower turnover)
TEST CONDITIONS: genetic background: wild type; temperature: 30 C
OBSERVATION TYPE: protein stability index

1. PPSPLLVTLPPA: 0.704
2. VRLLAESWEGGR: 0.702
3. SLRWVHVRGVLQ: 0.702
4. SMFFLFFFFFFF: 0.36
5. PAPPPHIPPSPS: 0.651
6. CAVVSRYQPLSL: 0.709
7. HPSFPPHRSPAS: 0.78
8. SCLRCSCLTEVL: 0.614
9. KSRKEREKSDNQ: 0.678
10. DLWTRGAVHRKA: 0.676
11. GCLFASWPLAVC: 0.303
12. KRYRLRVKIGNT: 0.529
13. VRNYWKYVVIFP: 0.569
14. TDSRPKVGKRGN: 0.658
15. PPCPSSPHARPA: 0.698
16. NTSVSGTGVSSK: 0.762
17. WLPTTPLPPLSP: 0.703
18. RVMGDAAGCGGV: 0.707
19. GGCEGIRAVGWV: 0.716
20. GCDVWCLVLRMG: 0.47
21. RWRFSARSRLSR: 0.642
22. FITRPYKNIKNR: 0.702
23. RAFDWFFIFGWC: 0.636
24. ACLCFIEFRCLL: 0.547
25. ALTALQTFRITL: 0.638
26. LGVGGRWVAPGA: 0.678
27. TTGGRGSRVGGR: 0.697
28. SVPTPSSNPRVK: 0.698
29. EWVTRQFEGWEG: 0.747
30. GFGSSSFLCFSR: 0.669
31. RSHAHTRNGSSA: 0.675
32. WFAHGLRHFRIL: 0.375
33. LYFGVGSICLVS: 0.649
34. PPLSCSPPLAPL: 0.695

----------
Let's look at some sequences and their measured protein stability index.
System: Saccharomyces cerevisiae
ASSAY NAME: protein stability index of tFT-peptide fusion (C-terminal peptide) (PSI (0-1 scale)); higher = more stable (slower turnover)
TEST CONDITIONS: genetic background: wild type; temperature: 30 C
OBSERVATION TYPE: protein stability index

1) VYEVELSVRVTV: 0.447
2) LCVWRRAIVWVG: 0.0818
3) PPVAYVCHLYVT: 0.335
4) ATSGATILVLIA: 0.218
5) FIRLFLVSFFIS: 0.189
6) GHSALWQVPRLM: 0.29
7) RLSTTTTKQFIH: 0.348
8) AGCFFVVLCGFF: 0.326
9) SRICRTIIQLKQ: 0.121
10) EKTKRGLIQRVV: 0.293
11) LHASCVYTILLV: 0.304
12) VCVFNLTLVGTH: 0.343

----------
Tested on: Saccharomyces cerevisiae
ASSAY NAME: protein stability index of tFT-peptide fusion (C-terminal peptide) (PSI (0-1 scale)); higher = more stable (slower turnover)
TEST CONDITIONS: genetic background: wild type; temperature: 37 C
OBSERVATION TYPE: protein stability index

1. MWFVGLCLHFFM: 0.499
2. DFRGVSVIRHQV: 0.308
3. DYARAWRTEVVC: 0.509

----------
Test system: Saccharomyces cerevisiae
ASSAY NAME: protein stability index of tFT-peptide fusion (C-terminal peptide) (PSI (0-1 scale)); higher = more stable (slower turnover)
TEST CONDITIONS: genetic background: doa10 deletion; temperature: 30 C
OBSERVATION TYPE: protein stability index

1. GLFFLCLLSMCF: 0.336
2. VLYSRFPPPLIA: 0.396
3. FTFLFPLRLLPL: 0.586
4. MLTYVVRSLVGY: 0.331
5. RWAAAVPLLVVG: 0.111
6. GCSVSLCCVFVV: 0.259
7. FPSLLFALFLFI: 0.44
8. SEVMVGLRLTLN: 0.282
9. SVFVVVVLVFWY: 0.211
10. QIGSMLGVQGVG: 0.495
11. FGFSFLHLFIFF: 0.443
12. GFSFFFIFWFFF: 0.378
13. SGLVAFSVCCRG: 0.263
14. SNFQLLPLFKNI: 0.182
15. EVFLARKRSMVV: 0.175
16. RSFGGRPWVLFL: 0.106
17. LALTRAAITHFF: 0.213
18. VLSLYWLIISRL: 0.446
19. QILVSYSFLYFF: 0.355
20. SLRYRFLSFFFL: 0.189
21. PSFLAIRVCLLV: 0.0853
22. EKTKRGLIQRVV: 0.247
23. FLGVFFYFLLCV: 0.253
24. SLARPGLCFVIA: 0.311
25. HHRLRQGLRRIN: 0.251
26. VVLVVVWWGGVE: 0.21
27. GQFVISVRFLYE: 0.389
28. SYFSVTLFFTVI: 0.252
29. VSFEFSVLWTVF: 0.384
30. VYCTFLFAYTLP: 0.435
31. GLNKGKYIKLYT: 0.461
32. LVFPPVPSLVLC: 0.192
33. SWVSVLSELLAC: 0.204
34. FLPHLMCVFSFC: 0.332
35. PPPHPPPATFLS: 0.401
36. RRQQNHRQLCAT: 0.21
37. FPFFFLSILSAV: 0.11
38. LCLRCQCIGTLS: 0.413
39. LVFPRWACSLVF: 0.263
40. PPPPPPPSSSSL: 0.674
41. RRIKNRRLKQVT: 0.214
42. LVFLYFHFCCGF: 0.399
43. TTGLLPSAYIWS: 0.677
44. VFFFFSLVNFRV: 0.47
45. RRQLVLVLSWVI: 0.299
46. AFKRVFWALWWM: 0.431
47. CSLFFFRLIFTL: 0.0783
48. LLSGLVFVFVLG: 0.204
49. IKIQPKKRISLI: 0.155
50. NAGSHHAAVKLG: 0.222
51. IGILVTAVPVFD: 0.343
52. GHFILFWVFCFM: 0.254
53. RVTEYHTKYKIV: 0.0697
54. SQVILFFLSLCR: 0.485
55. SVECLCLFVACR: 0.155
56. VAVYVGVGVSLG: 0.282
57. ALPLRSNILSVF: 0.242
58. CVIVCVLVWGRA: 0.152
59. PPTHDSPVWSPS: 0.667
60. APPHPPPATFLS: 0.326
61. GVARALFLWKAV: 0.286
62. VQTVRLVFQVLA: 0.106
63. RVFLVLFLILSG: 0.262
64. CLWNFWVRFLLL: 0.164
65. FLYFLLQFLCSG: 0.406
66. GCFVDRVYVVVV: 0.366
67. IGFSPSFQLYSA: 0.644
68. FFFSLFFVLFFA: 0.323
